Target: FLAP (human ALOX5AP expressed in COS-7 cell membranes) (Homo sapiens (Human), UniProt P20292)
Sequence (P20292 whole entry): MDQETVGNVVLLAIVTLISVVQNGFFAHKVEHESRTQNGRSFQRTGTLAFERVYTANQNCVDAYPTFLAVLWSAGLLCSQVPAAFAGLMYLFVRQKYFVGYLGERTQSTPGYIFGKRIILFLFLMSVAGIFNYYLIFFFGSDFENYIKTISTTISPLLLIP
Examples of compounds with documented pIC50 follow.
Convention used: pIC50 is expressed as -log10 of the molar concentration.

Ask: For the compound shown here, Cn1ncc(NC(=O)C2CCCCC2C(=O)c2ccc(-c3cc[nH]n3)cc2)c1C#N (single isomer, unassigned) [Example 18b] , give the reported pIC50.
Reply: 7.55

Ask: For the compound shown here, Cc1cc(-c2ccc(C(=O)[C@@H]3CCCC[C@H]3C(=O)Nc3nnco3)cc2)[nH]n1 , give the reported pIC50.
Reply: 6.85

Ask: For the compound shown here, CCn1ncc(NC(=O)[C@@H]2CCCC[C@H]2C(=O)c2ccc(-c3cc(C)n[nH]3)cc2)c1C(N)=O , give the reported pIC50.
Reply: 7.54

Where do these numbers come from? They come from patent US10183947B2.
